These data points were gathered from PubChem BioAssay AID1259240.

assayExplanation: modulation of TERT promoter-driven luciferase – cell-based, luciferase reporter, human, primary screen (AID 1259240)
conditionSummary: A2780 TERT promoter luciferase reporter, 16 h; at 20 µM, fold versus average of vehicle-only wells
Activity calls are given as the source filed them. Cut-off read from the data, not from the text of the source: active = fold change mostly below about -2 (no sharp cut-off); inactive = mostly above about -1.8.
Outcome codes: active, inactive

Cc1noc(C(=O)NC(C)C)c1Cl : inactive
CCOC(=O)C(Sc1nnc(-c2c[nH]c3ccccc23)n1C)C(=O)OCC : inactive
Cc1nc2cc(-c3ccccc3)nn2c(C)c1CCC(=O)O : active
O=C1C(c2sc3ccccc3c2O)=Nc2c1ccc1ccccc21 : active
CCC(=O)Nc1nc2nc(C(C)(C)C)cc(=O)n2[nH]1 : inactive
Cc1cc(C(F)(F)F)nc(Nc2nc3ccccc3o2)n1 : inactive
COc1cc(NC(=O)c2onc(C)c2Cl)cc(OC)c1OC : inactive
CC(=O)c1ccc2c(c1)c1cc(C(C)=O)ccc1n2C : inactive
